test.system: MerTK (Homo sapiens)
Construct: endogenous in cells; host or cells: Jurkat cells
test.name: MerTk degradation in Jurkat cells (Western blot)
Format: cell-based
recorded.conditions: Jurkat, 4 h, 0.001-1 μM, 4 hour-incubation at 37° C., read-out: Jurkat Max % MerTK Degradation
# Dmax per entry

compound	Dmax
CN1CCN(Cc2ccc(-c3ccc(CO[C@H]4CCC[C@@H]4NC(=O)c4cc(-c5cnn(CCOCCOCCCc6ccc7c(c6)n(C)c(=O)n7C6CCC(=O)NC6=O)c5)cnc4N)cc3)cc2)CC1 (stereo partly shown)	20 to 50%
CCC[C@H](C)Nc1ncc2c(-c3ccc(CN4CCN(C5CC(OCCc6ccc7c(c6)n(C)c(=O)n7C6CCC(=O)NC6=O)C5)CC4)cc3)cn([C@H]3CC[C@H](O)CC3)c2n1 (stereo partly shown)	> 50%
CCCCNc1ncc2c(-c3ccc(S(=O)(=O)N4CCN(C(=O)CCCCCCCCCCNC(=O)COc5cccc6c5C(=O)N(C5CCC(=O)NC5=O)C6=O)CC4)cc3)nn([C@H]3CC[C@H](O)CC3)c2n1 (stereo partly shown)	> 50%
COC[C@@H](C)Nc1ncc2c(-c3ccc(CN4CCN(CCOCCOCCOCCOCCNc5cccc6c5n(C)c(=O)n6C5CCC(=O)NC5=O)CC4)cc3)cn([C@H]3CC[C@H](O)CC3)c2n1 (stereo partly shown)	< 20%
CCCCNc1ncc2c(-c3ccc(S(=O)(=O)N4CCN(CCOCCOCCOCCOCC(=O)N[C@H](C(=O)N5C[C@H](O)C[C@H]5C(=O)NCc5ccc(-c6scnc6C)cc5)C(C)(C)C)CC4)cc3)nn([C@H]3CC[C@H](O)CC3)c2n1	> 50%
Cn1c(=O)n([C@H]2CCC(=O)NC2=O)c2ccc(CN3CC(OCCN4CCN(Cc5ccc(-c6cn([C@H]7CC[C@H](O)CC7)c7nc(NCCC(F)(F)F)ncc67)cc5)CC4)C3)cc21	< 20%
COCC(C)Nc1ncc2c(-c3ccc(CN4CCN(CCCCCNCCN[C@H](C(=O)N5C[C@H](O)C[C@H]5C(=O)NCc5ccc(-c6scnc6C)cc5)C(C)(C)C)CC4)cc3)cn([C@H]3CC[C@H](O)CC3)c2n1 (stereo partly shown)	< 20%
Cn1c(=O)n([C@H]2CCC(=O)NC2=O)c2ccc(CCCN3CCC(C4CCN(Cc5ccc(-c6cn([C@H]7CC[C@H](O)CC7)c7nc(NCCC(F)(F)F)ncc67)cc5)CC4)CC3)cc21	> 50%

Q. For CCCCNc1ncc2c(-c3ccc(S(=O)(=O)N4CCN(C(=O)NCCCOCCCNc5cccc6c5C(=O)N(C5CCC(=O)NC5=O)C6=O)CC4)cc3)nn([C@H]3CC[C@H](O)CC3)c2n1 (stereo partly shown) , what is its reported Dmax?
A. > 50%

Q. Recorded Dmax for C[C@H](c1ccc(-c2cn([C@H]3CC[C@H](O)CC3)c3nc(NCCC(F)(F)F)ncc23)cc1)N1CCN(CCCOCCCc2ccc3c(c2)n(C)c(=O)n3C2CCC(=O)NC2=O)CC1 (stereo partly shown) , please?
A. > 50%

---

Dmax values by entry
test.system: MerTK (Homo sapiens, UniProt Q12866)
Construct: endogenous in cells; host or cells: Jurkat cells
Sequence (Q12866 21-999): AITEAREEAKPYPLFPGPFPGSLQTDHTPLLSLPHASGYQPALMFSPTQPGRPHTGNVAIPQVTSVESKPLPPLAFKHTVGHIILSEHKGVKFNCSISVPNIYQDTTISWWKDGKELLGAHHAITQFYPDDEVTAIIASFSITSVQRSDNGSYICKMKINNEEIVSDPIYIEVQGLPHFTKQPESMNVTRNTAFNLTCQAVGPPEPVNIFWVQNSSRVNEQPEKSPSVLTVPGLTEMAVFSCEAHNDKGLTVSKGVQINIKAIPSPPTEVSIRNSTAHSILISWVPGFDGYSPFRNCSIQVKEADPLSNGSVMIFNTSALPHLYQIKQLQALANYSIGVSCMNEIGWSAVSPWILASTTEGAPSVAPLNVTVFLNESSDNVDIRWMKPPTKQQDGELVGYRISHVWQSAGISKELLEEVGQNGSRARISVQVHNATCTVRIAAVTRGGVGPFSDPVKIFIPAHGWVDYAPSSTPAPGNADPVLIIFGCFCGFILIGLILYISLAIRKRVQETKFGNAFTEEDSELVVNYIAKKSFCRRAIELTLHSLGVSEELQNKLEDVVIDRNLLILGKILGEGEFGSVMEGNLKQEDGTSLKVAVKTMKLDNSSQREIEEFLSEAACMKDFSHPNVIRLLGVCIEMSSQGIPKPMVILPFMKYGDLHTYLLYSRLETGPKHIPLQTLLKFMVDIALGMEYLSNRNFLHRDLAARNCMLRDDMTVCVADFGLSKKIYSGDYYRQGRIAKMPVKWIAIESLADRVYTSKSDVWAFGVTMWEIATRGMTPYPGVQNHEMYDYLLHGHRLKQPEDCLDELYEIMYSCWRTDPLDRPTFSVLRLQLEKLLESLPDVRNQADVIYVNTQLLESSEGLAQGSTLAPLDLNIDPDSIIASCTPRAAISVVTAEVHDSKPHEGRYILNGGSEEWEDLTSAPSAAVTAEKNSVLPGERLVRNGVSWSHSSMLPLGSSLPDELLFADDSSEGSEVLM
test.name: MerTk degradation in Jurkat cells (Western blot)
Format: cell-based
recorded.conditions: Jurkat, 4 h, 0.001-1 μM, 4 hour-incubation at 37° C., read-out: Jurkat Max % MerTK Degradation
Where a name gives a salt, the structure may show the parent alone.

// worked examples, Dmax included
compound	recorded.value
CCCCNc1ncc2c(-c3ccc(S(=O)(=O)N4CCN(CCOCCOCCOCCOCCNc5cccc6c5n(C)c(=O)n6C5CCC(=O)NC5=O)CC4)cc3)cn([C@H]3CC[C@H](O)CC3)c2n1 (relative stereo)	> 50%
Cn1c(=O)n(C2CCC(=O)NC2=O)c2ccc(C#CCOCCN3CCCC(N4CCN(Cc5ccc(-c6cn([C@H]7CC[C@H](O)CC7)c7nc(NCCC(F)(F)F)ncc67)cc5)CC4)C3)cc21 (some centres unmarked)	> 50%
Cc1ccc(CNc2ncc3c(-c4ccc(CN5CCN(CCOCCOCCOCCOCCNc6cccc7c6C(=O)N(C6CCC(=O)NC6=O)C7=O)CC5)cc4)cn([C@H]4CC[C@H](O)CC4)c3n2)cc1 (some centres unmarked) [I-26, formate]	> 50%

Q. May I ask what Dmax has been recorded for CCCCNc1ncc2c(n1)n([C@H]1CC[C@H](O)CC1)cc2[C@H]1CC[C@H](CN2CCN(CCOCCOCCOCCOCCCc3ccc4c(c3)n(C)c(=O)n4[C@H]3CCC(=O)NC3=O)CC2)CC1 ?
A. > 50%

Q. Consider the compound shown here: CN(C)c1cccc2c(S(=O)(=O)Nc3cccc(-c4cnc(NCCOCCOCCOCCN5CCN(Cc6ccc(-c7cn([C@H]8CC[C@H](O)CC8)c8nc(NCCC(F)(F)F)ncc78)cc6)CC5)nc4N4CCC(c5ccccc5)C4C(=O)O)c3)cccc12 (some centres unmarked) What is its recorded Dmax?
A. < 20%

---

test.system: MerTK (Homo sapiens)
Construct: endogenous in cells; host or cells: Jurkat cells
test.name: MerTk degradation in Jurkat cells (Western blot)
Type: cell-based
recorded.conditions: Jurkat, 4 h, 0.001-1 μM, 4 hour-incubation at 37° C., read-out: Jurkat Max % MerTK Degradation
assay.endpoint: Dmax

The cases that follow already have their Dmax on record.
compound	assay.endpoint	recorded.value
Cn1c(=O)n([C@H]2CCC(=O)NC2=O)c2ccc(CCOC3CCN(C4CCN(Cc5ccc(-c6cn([C@H]7CC[C@H](O)CC7)c7nc(NCCC(F)(F)F)ncc67)cc5)CC4)CC3)cc21 [I-155]	Dmax	> 50%
C[C@H](CC(F)(F)F)Nc1ncc2c(-c3ccc(CN4CCN(C5CC(OCCc6ccc7c(c6)n(C)c(=O)n7C6CCC(=O)NC6=O)C5)CC4)cc3)cn([C@H]3CC[C@H](O)CC3)c2n1 (some centres unmarked) [I-194]	Dmax	> 50%
CCCCNc1ncc2c(-c3ccc(CN4CCN(CCOCCOCCCc5ccc6c(c5)n(C)c(=O)n6[C@H]5CCC(=O)NC5=O)CC4)cc3)nn([C@H]3CC[C@H](O)CC3)c2n1 [I-50]	Dmax	> 50%
CN(C)c1cccc2c(S(=O)(=O)Nc3cccc(-c4cnc(NCCOCCN5CCN(Cc6ccc(-c7cn([C@H]8CC[C@H](O)CC8)c8nc(NCCC(F)(F)F)ncc78)cc6)CC5)nc4N4CCC(c5ccccc5)C4C(=O)O)c3)cccc12 (some centres unmarked) [I-167]	Dmax	< 20%

Now for another entry.
Q. Need Dmax, item CCCCNc1ncc2c(-c3ccc(S(=O)(=O)N4CCN(C(=O)NCCOCCCOCCNc5cccc6c5C(=O)N(C5CCC(=O)NC5=O)C6=O)CC4)cc3)nn([C@H]3CC[C@H](O)CC3)c2n1 (some centres unmarked) [I-23]
A. > 50%

---

test.system: MerTK (Homo sapiens, UniProt Q12866)
Construct: endogenous in cells; host or cells: Jurkat cells
test.name: MerTk degradation in Jurkat cells (Western blot)
Format: cell-based
recorded.conditions: Jurkat, 4 h, 0.001-1 μM, 4 hour-incubation at 37° C., read-out: Jurkat Max % MerTK Degradation
Method: Compounds were reconstituted in DMSO to make 10 mM stock solutions. […] Cells were seeded into 6-well plates with about 5×10^6 cells per well. 2 μL of diluted compounds were added to cells to the final concentration of 0.001-1 μM. […] The protein concentration of cell lysates was quantified with Pierce™ BCA Protein Assay Kit. […] After incubation at 37° C. for 30 min, the absorbance of samples at 562 nm were measured with EnVision Plate Reader. […]
Listing of entries alongside the reported Dmax.

Please review the following examples before continuing.
compound	Dmax
O=C1CC[C@H](n2c3ccc(NCCOCCOCCN4CCN(Cc5ccc(-c6cn([C@H]7CC[C@H](O)CC7)c7nc(NCCC(F)(F)F)ncc67)cc5)CC4)cc3c3cccnc32)C(=O)N1	> 50%
Cn1c(=O)n([C@H]2CCC(=O)NC2=O)c2ccc(CCCOCCOCCN3CCN(Cc4ccc(-c5nn([C@H]6CC[C@H](O)CC6)c6nc(NCCC(F)(F)F)ncc56)cc4)CC3)cc21	> 50%
C[C@H](CC(F)(F)F)Nc1ncc2c(-c3ccc(CN4CCN(CCCOCCCc5ccc6c(c5)n(C)c(=O)n6C5CCC(=O)N(C)C5=O)CC4)cc3)cn([C@H]3CC[C@H](O)CC3)c2n1 (some centres unmarked)	< 20%
CN1CCN(Cc2ccc(-c3ccc(CO[C@H]4CCC[C@@H]4NC(=O)c4cc(-c5cnn(CCOCCOCCOCCCc6cccc7c6n(C)c(=O)n7C6CCC(=O)NC6=O)c5)cnc4N)cc3)cc2)CC1 (some centres unmarked)	20 to 50%

Next item in the queue.
Q. So what does the record say about Dmax for CCC[C@H](C)Nc1ncc2c(-c3ccc(CN4CCN(CCCOC5CCN(Cc6ccc7c(c6)n(C)c(=O)n7C6CCC(=O)NC6=O)CC5)CC4)cc3)cn([C@H]3CC[C@H](O)CC3)c2n1 (some centres unmarked) ?
A. > 50%
